System: Mtb H37Rv pMSp12::GFP bioreporter strain
procedure-details: microbe, parasite or virus in culture
Type: cell-based, Mycobacterium tuberculosis
run-conditions: Mycobacterium tuberculosis, H37RV, 168 h, […]; 7 days; 90% inhibition; read-out: MIC90, 7H9/CAS/ Glu/Tx, 7 Days
MIC90 vs 20 µg/mL: less than gives Y; not less than gives N.

compound="CC(C)C1=C(O)C(=O)C2=C(C1=O)[C@H](O)[C@@H](O)C1C(C)(C)CCC[C@]21C (stereo partly drawn) [Compound 1, 6β,7α-dihydroxyroyleanone]" qualitative_label=N
compound="CC(C)C1=C(O)C(=O)C2=C(C(=O)C(O)=C3C(C)(C)CCC[C@]23C)C1=O [Compound 4, coleon U quinone]" qualitative_label=Y
compound="CO[C@H]1/C=C/O[C@@]2(C)Oc3c(C)c(O)c4c(O)c(c(/C=N/N5CCN(C)CC5)c(O)c4c3C2=O)NC(=O)/C(C)=C\\C=C\\[C@H](C)[C@H](O)[C@@H](C)[C@@H](O)[C@@H](C)[C@H](OC(C)=O)[C@@H]1C [Rifampicin, reference compound]" qualitative_label=Y
compound="CC(C)c1cc2c(c(O)c1O)[C@@]13CCCC(C)(C)[C@@H]1[C@](O)(OC3)C2=O [Compound 5, carnosolon]" qualitative_label=N

Q: Strictly below 20 µg/mL in MIC90? CC(=O)OC1C2=C(C(=O)C(O)=C(C(C)C)C2=O)C2(C)CCCC(C)(C)C2C1O (stereo not drawn) [Compound 2, 7α-acetoxy-6β-hydroxyroyleanone]
Result: Y

Q: Strictly below 20 µg/mL in MIC90? CC(C)C1=C(O)C(=O)C2=C(C1=O)[C@H](O)C[C@H]1C(C)(C)CCC[C@]21C [Compound 3, horminone]
Result: Y
